Test system: A2780 (ovarian carcinoma)
Assay: WST-1 cell proliferation assay, cytotoxicity screening
Type: cell-based
Conditions: Homo sapiens, A2780; c = 10 μM, 48 h; % of proliferation of nontreated control; read-out: growth percent (GP) A2780
# activity at 10 µM per entry
Unit % implied. Number only.

// known answers, use as guide
# compound, activity at 10 µM (%)
measured = [
    ("CC(=O)O[C@@H]1CC=C2CCN3Cc4cc5c(cc4[C@H]1[C@@H]23)OCO5 [Compound 26]", 141),
    ("COc1cc2c(c(OC)c1OC)[C@@H](O)O[C@@H]1CC=C3CCN(C)[C@H]3[C@H]21 [Compound 21]", 95),
    ("COc1cc2c(cc1OC)[C@@H]1[C@H](O)[C@@H](OC)C=C3CCN(C2)[C@H]31 [Compound 23]", 113),
    ("COc1cc2c(cc1O)[C@@H]1[C@H](O)[C@@H](OC)C=C3CCN(C2)[C@H]31 [Compound 25]", 125),
    ("COc1cc2c(cc1OC)[C@@]13C=C[C@@H](OC)C[C@@H]1N(C2)C[C@@H]3O [Compound 1, zephycitrine]", 98),
]

// below: activity at 10 µM requested for another compound
(Q) So what's the measured activity at 10 µM for this one? COc1cc2c(cc1OC)[C@@H]1[C@H](O)[C@@H](OC)[C@H](O)C3=CCN(C2)[C@H]31 [Compound 6, narcissidine]
(A) 101

###

# activity at 10 µM per entry
Test system: SAOS-2 (osteosarcoma)
Assay: WST-1 cell proliferation assay, cytotoxicity screening
Type: cell-based
Conditions: Homo sapiens, SAOS-2; c = 10 μM, 48 h; % of proliferation of nontreated control; read-out: growth percent (GP) SAOS-2
Protocol: […] Each cell line was seeded at a previously established optimal density (1 × 10^3 to 50 × 10^3 cells per well) in a 96-well plate (TPP, Trasadingen, Switzerland) and cells were allowed to settle overnight. […] The absorbance was determined using a Tecan Spark microplate reader (Tecan, Männedorf, Switzerland). […] The growth percent (GP) value as the mean of the proliferation decrease was calculated for each cell line and derivative tested.
Unit % implied. Number only.

// known answers, use as guide
# compound, quantity, recorded.measurement
measured = [
    ("COc1cc2c(cc1OC)[C@@H]1[C@H](O)[C@@H](OC)C=C3CCN(C2)[C@H]31", "activity at 10 µM", 97),
    ("COc1cc2c(cc1OC)[C@@H]1[C@H](O)[C@@H](OC)[C@H](O)C3=CCN(C2)[C@H]31 [Compound 6, narcissidine]", "activity at 10 µM", 101),
]

(Q) So what's the measured activity at 10 µM for this one? `COc1cc2c(cc1O)[C@@H]1[C@H](O)[C@@H](OC)C=C3CCN(C2)[C@H]31`
(A) 71

(Q) So what's the measured activity at 10 µM for this one? `COc1cc2c(cc1OC)[C@@]13C=C[C@@H](OC)C[C@@H]1N(C2)C[C@@H]3O`
(A) 101

(Q) So what's the measured activity at 10 µM for this one? `COc1cc2c(c(OC)c1OC)[C@@H](O)O[C@@H]1CC=C3CCN(C)[C@H]3[C@H]21`
(A) 105

(Q) So what's the measured activity at 10 µM for this one? `CC(=O)O[C@@H]1CC=C2CCN3Cc4cc5c(cc4[C@H]1[C@@H]23)OCO5`
(A) 95

###

System: PANC-1 (pancreas epithelioid carcinoma)
Test: WST-1 cell proliferation assay, cytotoxicity screening
Assay type: cell-based
Conditions: Homo sapiens, PANC-1; c = 10 μM, 48 h; % of proliferation of nontreated control; read-out: growth percent (GP) PANC-1
quantity: activity at 10 µM (%)
Unit % implied. Number only.

// known answers, use as guide
# compound, subject.of.test, recorded.measurement
records = [
    ("CC(=O)O[C@@H]1CC=C2CCN3Cc4cc5c(cc4[C@H]1[C@@H]23)OCO5", "PANC-1 (pancreas epithelioid carcinoma)", 119),
    ("COc1cc2c(cc1OC)[C@@H]1[C@H](O)[C@@H](OC)[C@H](O)C3=CCN(C2)[C@H]31 [Compound 6, narcissidine]", "PANC-1 (pancreas epithelioid carcinoma)", 102),
    ("COc1cc2c(cc1OC)[C@@H]1[C@H](O)[C@@H](OC)C=C3CCN(C2)[C@H]31", "PANC-1 (pancreas epithelioid carcinoma)", 97),
    ("COc1cc2c(c(OC)c1OC)[C@@H](O)O[C@@H]1CC=C3CCN(C)[C@H]3[C@H]21", "PANC-1 (pancreas epithelioid carcinoma)", 90),
]

(Q) Can you look up activity at 10 µM on PANC-1 (pancreas epithelioid carcinoma) for `COc1cc2c(cc1OC)[C@@]13C=C[C@@H](OC)C[C@@H]1N(C2)C[C@@H]3O` ?
(A) 102

(Q) Can you look up activity at 10 µM on PANC-1 (pancreas epithelioid carcinoma) for `COc1cc2c(cc1O)[C@@H]1[C@H](O)[C@@H](OC)C=C3CCN(C2)[C@H]31` ?
(A) 83

###

Tested on: Jurkat (acute T-cell leukemia)
Assay: WST-1 cell proliferation assay, cytotoxicity screening
Assay type: cell-based
Settings: Homo sapiens, c = 10 μM, 48 h, % of proliferation of nontreated control, read-out: growth percent (GP) Jurkat
quantity: activity at 10 µM (%)
Unit % implied. Number only.

// known answers, use as guide
# compound, activity at 10 µM [%]
data = [
    ("CC(=O)O[C@@H]1CC=C2CCN3Cc4cc5c(cc4[C@H]1[C@@H]23)OCO5", 132),
    ("COc1cc2c(cc1OC)[C@@H]1[C@H](O)[C@@H](OC)C=C3CCN(C2)[C@H]31", 98),
    ("COc1cc2c(cc1O)[C@@H]1[C@H](O)[C@@H](OC)C=C3CCN(C2)[C@H]31", 91),
    ("COc1cc2c(c(OC)c1OC)[C@@H](O)O[C@@H]1CC=C3CCN(C)[C@H]3[C@H]21", 91),
    ("COc1cc2c(cc1OC)[C@@H]1[C@H](O)[C@@H](OC)[C@H](O)C3=CCN(C2)[C@H]31 [Compound 6, narcissidine]", 111),
]

// below: activity at 10 µM requested for another compound
(Q) Can you look up activity at 10 µM on Jurkat (acute T-cell leukemia) for `COc1cc2c(cc1OC)[C@@]13C=C[C@@H](OC)C[C@@H]1N(C2)C[C@@H]3O` ?
(A) 111

###

System: A549 (lung carcinoma)
Experiment: WST-1 cell proliferation assay, cytotoxicity screening
Assay type: cell-based
Conditions: Homo sapiens, A549; c = 10 μM, 48 h; % of proliferation of nontreated control; read-out: growth percent (GP) A549
# activity at 10 µM per entry
Unit % implied. Number only.

# compound, unit.symbol, activity at 10 µM
rows = [
    ("COc1cc2c(cc1OC)[C@@H]1[C@H](O)[C@@H](OC)[C@H](O)C3=CCN(C2)[C@H]31 [Compound 6, narcissidine]", "%", 113),
]

(Q) Can you look up activity at 10 µM on A549 (lung carcinoma) for `COc1cc2c(c(OC)c1OC)[C@@H](O)O[C@@H]1CC=C3CCN(C)[C@H]3[C@H]21` ?
(A) 101

(Q) Can you look up activity at 10 µM on A549 (lung carcinoma) for `COc1cc2c(cc1OC)[C@@H]1[C@H](O)[C@@H](OC)C=C3CCN(C2)[C@H]31` ?
(A) 93

(Q) Can you look up activity at 10 µM on A549 (lung carcinoma) for `COc1cc2c(cc1OC)[C@@]13C=C[C@@H](OC)C[C@@H]1N(C2)C[C@@H]3O` ?
(A) 100

(Q) Can you look up activity at 10 µM on A549 (lung carcinoma) for `COc1cc2c(cc1O)[C@@H]1[C@H](O)[C@@H](OC)C=C3CCN(C2)[C@H]31` ?
(A) 83

(Q) Can you look up activity at 10 µM on A549 (lung carcinoma) for `CC(=O)O[C@@H]1CC=C2CCN3Cc4cc5c(cc4[C@H]1[C@@H]23)OCO5` ?
(A) 113

###

System: SAOS-2 (osteosarcoma)
Test: WST-1 cell proliferation assay, cytotoxicity screening
Type: cell-based
Details: Homo sapiens, SAOS-2, 48 h, read-out: growth percent (GP) SAOS-2
# activity at 10 µM per entry
Unit % implied. Number only.

// known answers, use as guide
# molecule, activity at 10 µM / %
records = [
    ("COc1cc2c(cc1O)C(=O)O[C@@H]1CC=C3CCN(C)[C@H]3[C@H]21 [Compound 22]", 103),
    ("O[C@H]1[C@H]2c3cc4c(cc3CN3CCC(=C[C@@H]1O)[C@H]23)OCO4 [Compound 27, lycorine]", 27),
    ("COc1cc2c(cc1OC)[C@@]13CC[C@@H](O)C[C@@H]1N(CC3)C2 [Compound 11]", 97),
    ("O[C@@H]1C=C[C@]23CCN(Cc4cc5c(cc42)OCO5)[C@H]3C1 [Compound 14]", 79),
    ("COc1cc2c(cc1OC)[C@@]13C=CC(O)C[C@@H]1N(CC3)C2 (stereo partly shown) [Compound 15, maritidine]", 94),
]

(Q) Can you look up activity at 10 µM on SAOS-2 (osteosarcoma) for CO[C@@H]1C=C[C@@]23c4cc5c(cc4CO[C@]2(O)CN(C)[C@H]3C1)OCO5 [Compound 20] ?
(A) 92
